Each entry below carries its recorded GI50.
# Test system: MOLT-4
# assay.remarks: NCI tumour cell line growth inhibition, 48 h
Activity calls are given as the source filed them. Cut-off read from the data, not from the text of the source: active = GI50 up to about 1.1 µM and inactive = higher.

Item COc1cc2ccnc(C#N)c2cc1OCc1ccccc1 has what recorded GI50? > 100 µM (inactive)

---

# Test system: SN12C
# assay.remarks: NCI tumour cell line growth inhibition, 48 h
Activity calls are given as the source filed them. No stated cut-off is given here; in the data, active = GI50 up to about 1.1 µM and inactive = higher.
property.measured: GI50

Worked examples, 8 compounds total:
compound	property.measured	endpoint.result
C[N+](C)(C)Cc1c(CC#N)[nH]c2ccccc12	GI50	> 100 µM (inactive)
CCNCCNC(=O)c1ccc(I)cc1	GI50	> 100 µM (inactive)
CC(C)(NC1=NCCO1)c1ccccc1	GI50	> 100 µM (inactive)
CCOP1(=O)OCC2OC(n3cnc4c(N)ncnc43)C(O)C2O1.c1ccccc1 (stereo unspecified)	GI50	> 100 µM (inactive)
COc1cc2c(cc1OC)CN1CCCc3cc(OC)c(OC)cc3C1C2 (stereo unspecified)	GI50	42.7 µM (inactive)
Cc1cccc(C)c1NC(=O)/C=C/c1ccccc1	GI50	> 100 µM (inactive)
CCOC(=O)C(C#N)C1=CC(=O)C(=O)c2ccc(O)cc21 (stereo unspecified)	GI50	> 100 µM (inactive)
CCCCC(=O)N/S(=N/C(=O)c1ccccc1)C(Cl)(Cl)Cl (stereo unspecified)	GI50	> 100 µM (inactive)

What GI50 value was documented for this compound, CC(=O)OC1C(O)C(C)OC(OC(=O)C2CCC3C(C2)OC2(CC(OC(=O)/C=C/c4ccccc4)C(C)CO2)C32CO2)C1OC1OC(C)C(O)C(O)C1O (stereo unspecified) ? 0.0514 µM (active)

Record request: GI50 value, item C=C1C(=O)OC2C=C(C)CC3C=C(CCC=C(C)CCC12)C(=O)O3 (stereo unspecified) 69 µM (inactive)

What does the record list as GI50 for COc1ccc(/C=C/[N+](=O)[O-])cc1 ? 16.3 µM (inactive)

---

# System: UACC-62
# assay.remarks: NCI tumour cell line growth inhibition, 48 h
Calls of active or inactive are those of the source. Cut-off read from the data, not from the text of the source: active = GI50 up to about 1.1 µM and inactive = higher.
property.measured: GI50

Query the reported GI50 for UACC-62; item: COc1ccc(-n2nnnc2C2(Nc3ccccc3)CCN(Cc3ccccc3)CC2)cc1 10.5 µM (inactive)

// fetch UACC-62 GI50 for Cc1cc(N(CCC#N)CCC#N)ccc1/C=C(\N=[N+]=[N-])C(=O)NC(=O)COc1ccccc1 > 100 µM (inactive)

---

# System: SW-620
# assay.remarks: NCI tumour cell line growth inhibition, 48 h
Activity calls are given as the source filed them. Rule as the data show it: active = GI50 up to about 1.1 µM and inactive = higher.
Respond using exactly one of the listed classes: active, inactive

Answer briefly: the call reported for Nc1ccc(S(=O)(=O)Nc2ccc(Nc3c4ccccc4nc4ccccc34)cc2)cc1 in this assay. active

# outcome recorded in this test, key = COc1ccc(-c2oc3c(OC)c(OC)c(OC)c(OC)c3c(=O)c2OC)cc1OC [3,5,6,7,8,3',4'-HEPTAMETHOXYFLAVONE] inactive

Look up the recorded call for Cn1c(-c2c(C3=CC(=O)N(c4ccccc4)C3=O)c3ccccc3n2C)cc2ccccc21 in this test. inactive

Could you kindly confirm the outcome this assay logged for CC(=O)OC/C=C(/CCl)CCC(Br)C(C)(C)Br.CC(=O)OC/C=C(\CCl)CCC(Br)C(C)(C)Br (stereo not given) ? inactive

State the result this test recorded for C=CCNC(=O)CN(CC(=O)OC)C1CCCCC1N(CC(=O)OC)CC(=O)OC (stereo not given) . inactive
